Target: FGFR2 (Homo sapiens, UniProt P21802)
Sequence (P21802 22-821, species assumed): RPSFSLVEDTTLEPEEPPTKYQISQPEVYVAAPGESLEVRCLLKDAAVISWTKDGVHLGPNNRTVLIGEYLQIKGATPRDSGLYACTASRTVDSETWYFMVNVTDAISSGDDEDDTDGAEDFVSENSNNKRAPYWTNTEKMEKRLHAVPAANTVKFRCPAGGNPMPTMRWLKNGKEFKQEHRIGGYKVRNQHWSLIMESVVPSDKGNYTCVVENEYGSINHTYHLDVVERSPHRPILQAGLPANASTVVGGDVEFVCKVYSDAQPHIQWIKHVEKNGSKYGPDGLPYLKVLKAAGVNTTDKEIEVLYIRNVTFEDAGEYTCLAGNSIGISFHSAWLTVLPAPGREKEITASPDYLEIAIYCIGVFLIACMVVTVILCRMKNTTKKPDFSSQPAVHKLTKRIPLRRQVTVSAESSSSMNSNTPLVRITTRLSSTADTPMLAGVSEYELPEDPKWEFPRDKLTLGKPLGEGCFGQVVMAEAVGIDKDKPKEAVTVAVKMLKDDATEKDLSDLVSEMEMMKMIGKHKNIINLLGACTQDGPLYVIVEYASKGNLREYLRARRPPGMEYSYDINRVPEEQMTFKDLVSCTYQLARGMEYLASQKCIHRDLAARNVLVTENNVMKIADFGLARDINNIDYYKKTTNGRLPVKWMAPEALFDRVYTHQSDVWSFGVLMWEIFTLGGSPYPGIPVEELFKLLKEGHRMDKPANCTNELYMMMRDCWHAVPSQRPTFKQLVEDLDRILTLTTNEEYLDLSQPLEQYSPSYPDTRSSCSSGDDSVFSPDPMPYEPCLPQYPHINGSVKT
Test: Affinity to FGFR2 by isothermal titration calorimetry (ITC)
Type: binding
Conditions: read-out: dissociation constant Kd with FGFR2
Source text: 1. Detection of the Affinity Between the Repair Peptide R1 and FGFR2 by Using the ITC Method (The K denoted the affinity constant, and the Kd denoted the dissociation constant. The larger the K was and the smaller the Kd was, the stronger the affinity was).
No end group written: not given here.
Readout Type: Kd

Substance	Experimental Value
GPANVET [R1, GPANVET]	~1.37 nM

Value source: patent US11260101B2
